Answer each item with its documented TGI.
- Test system: K-562 leukemia
- methodSummary: NCI tumour cell line growth inhibition, 48 h

Task: Endpoint output: TGI of CC(=O)N1c2ccccc2C23CCN4CC5=CCOC(O)C(C5CC42)C13 (centres undefined) . Value?
Result: > 100 µM

Task: Which TGI is listed for CC1CC(=O)C(C(O)CC2CC(=O)N(c3ccccc3)C(=O)C2)C(C)C1 (centres undefined) ?
Result: > 100 µM

Task: Entry under review: C=C(C)C1CC[C@]2(C(=O)O)CCC3(C)[C@H](CCC4[C@@]5(C)CC[C@H](OC6OC(CO)C(O)C6OC6OC(C)C(O)C(O)C6O)[C@@](C)(CO)C5CC[C@]43C)C12 (some centres undefined) . Reported TGI?
Result: > 100 µM

Task: Tell me the measured TGI of `N#Cc1cccc(Nc2nccc(-c3cnn4ncccc34)n2)c1` , please.
Result: > 25 µM

Task: Any idea what TGI was measured for `Cc1ccc(N2C(=O)/C(=c3\s/c(=C(/N)O)c(=N)n3-c3ccccc3)SC2=S)cc1` ?
Result: > 100 µM

Task: // returns reported TGI for input `Cc1ccnc2c1NC(=O)c1cccnc1N2C1CC1`
Result: > 100 µM

Task: TGI lookup needed for CCC12C=CCN3CC[C@]4(C(=C(C(=O)OC)[C@@H]1Nc1ccn(C5OC(COC(C)=O)C(OC(C)=O)C5OC(C)=O)c(=O)n1)Nc1ccccc14)C32 (some centres undefined) , thanks.
Result: 17.1 µM

Task: Need TGI of `COc1cc2c(cc1OC)-c1cc3ccccc3c(=O)n1CCC2` , thanks.
Result: > 81.9 µM

Task: Given `Nc1nc(Cl)c2ncn(Cc3ccccc3CCl)c2n1` , state its recorded TGI.
Result: > 100 µM

Task: Recorded TGI for `N#Cc1c(NC(=O)CCC(=O)O)ccc2ccccc12` , please?
Result: > 100 µM

Task: Can you share its TGI? I mean this molecule: `COc1cc(CNC(=O)CCCCCCCC/C=C/Br)ccc1O`
Result: > 10 µM

Task: Suppose we examine the molecule Oc1cccc(C2SCc3nc4ccccc4n32)c1 (centres undefined) ; what TGI value has been reported?
Result: > 100 µM

Task: Which TGI value belongs to COC1OC(C)C(OC(=O)C(C)(C)C)C(C)(O)C1O (centres undefined) ?
Result: > 100 µM

Task: Request the reported TGI associated with Nc1nc(=O)n(C2OC(CO)C(O)C2O)cc1F (centres undefined)
Result: > 100 µM

Task: Given the entry CCNC1CC(C(C)(C)NCC)CC=C1C (centres undefined) , report its measured TGI.
Result: > 100 µM

Task: Please report the recorded TGI for `Nc1cc(C(F)F)c(-c2nc(N3[C@@H]4CC[C@H]3COC4)nc(N3[C@@H]4CC[C@H]3COC4)n2)cn1` .
Result: > 100 µM

Task: // TGI lookup, key: `CCCCNc1nc(SC)nc2nc[nH]c12`
Result: > 100 µM

Task: Look up TGI for this molecule: c1ccc(C2CC(N3CCOCC3)=Nc3ccccc3N2)cc1 (centres undefined)
Result: > 100 µM

Task: Returns the measured TGI for the input molecule. Input: `O=C(C#Cc1c[nH]c(=O)[nH]c1=O)c1ccccc1`
Result: 14.4 µM

Task: Find the recorded TGI belonging to `c1ccc(-c2cc(-c3cc(-c4ccccn4)[nH]n3)n[nH]2)nc1` and report it.
Result: > 100 µM

Task: Consider the molecule `c1ccc2cc3n[se]nc3cc2c1` and give its measured TGI.
Result: > 100 µM

Task: Dear colleague, I am looking for the recorded TGI of the following molecule: `COc1ccc(OC)c(CCc2cc(OC)c(OC)cc2C)c1`
Result: > 100 µM

Task: # query: TGI of entry Fc1cccc(F)c1C1SCc2nc3ccccc3n21 (centres undefined)
Result: > 100 µM

Task: So what's the measured TGI for this one? `CC(C)(C)SC1=CCC[C@@H](P(=O)(c2ccccc2)c2ccccc2)[C@@H]2CCC[C@@H]12`
Result: 51.6 µM

Task: # lookup: TGI of `N#Cc1ccc(-n2cnc(NC(=O)[C@H]3CCN(C#N)C3)c2)cc1`
Result: > 100 µM

Task: So what does the record say about TGI for `O=C(O)/C(=C\c1ccccc1)Cc1ccccc1` ?
Result: > 100 µM

Task: For the molecule shown here, O=C1Nc2ccccc2SC1C1SC(=S)N(Cc2ccccc2)C1=O (centres undefined) , give the reported TGI.
Result: > 81.1 µM

Task: Name the reported TGI value associated with the molecule `O=C1c2c(Br)sc(Br)c2[C@H]2NC(=S)O[C@@H]12`
Result: 20.7 µM

Task: Name the recorded TGI for `COc1ccc(/C=N/NC(=O)O)cc1` .
Result: > 100 µM

Task: Consider the molecule shown here: `O=C(Nc1ccc(-n2cc(-c3ccncc3)c(-c3ccc(Cl)c(O)c3)n2)cc1)c1cc(Cl)cc(Cl)c1` What is its recorded TGI?
Result: > 100 µM

Task: For the molecule `COc1cc(/C=C2\C(=O)N(c3c(Cl)cccc3Cl)c3ccccc32)cc(OC)c1O` , what TGI is on record?
Result: > 66.6 µM

Task: Entry `Cc1cccc(C)c1NC(=S)/N=C/C1=C(O)c2ccccc2C1=O` : reported TGI = ?
Result: > 100 µM

Task: Look at this molecule and give its reported TGI. `Cc1oc2c(c1C(=O)c1ccccc1)C(=O)c1ccccc1C2=O`
Result: 5.89 µM

Task: Would you mind telling me what TGI value was observed for CNC(=O)OCc1nc(S(C)=O)n(C)c1COC(=O)NC (centres undefined) ?
Result: > 100 µM

Task: Requested read-out: TGI. Entry: `N/C(=N\C(=S)N1CCCCC1)N1CCCCC1`
Result: > 100 µM

Task: Please look up its TGI: `CC(C)CCNC(=O)c1ccc(CNC(=O)/C=C/c2ccc(-c3ccccc3[N+](=O)[O-])o2)cc1`
Result: > 100 µM

Task: Value lookup for TGI; key = `C(/COc1cccnc1)=N\NC1=NCCN1`
Result: > 100 µM

Task: # TGI lookup, item `C=CCC1(O)c2cccc(O)c2C(=O)c2c(O)cccc21`
Result: > 100 µM

Task: Look up TGI: `O=S(=O)(Nc1ccccc1S(=O)(=O)c1ccccc1)c1ccccc1`
Result: > 100 µM

Taken from PubChem BioAssay (NCI).
